# Test system: Human immunodeficiency virus 1
# ASSAY OVERVIEW: Antiviral activity against HIV-1 harboring E138K mutant infected in human MT4 cells assessed as protection against virus-induced cytopathic effect incubated for 5 days by MTT assay
# Type: functional, organism-based
# MEASUREMENT PARAMETERS: Human immunodeficiency virus 1, MT4, 120 h
QUANTITY KIND: EC50 (nM)
// units = nM; emit number, no label

Req: Sample Cc1cc(-c2ccc(C#N)cc2)cc(C)c1Oc1nc(NC2CCN(Cc3ccc(S(N)(=O)=O)cc3)CC2)ncc1CO — what was its EC50?
Resp: 8

Req: Sample COCCNC(=O)c1ccc(CN2CCC(Nc3ncc(CO)c(Oc4c(C)cc(-c5ccncc5)cc4C)n3)CC2)cc1 — what was its EC50?
Resp: 50

Req: Sample Cc1cn([C@H]2C[C@H](N=[N+]=[N-])[C@@H](CO)O2)c(=O)[nH]c1=O — what was its EC50?
Resp: 32

Req: Sample Cc1cc(-c2ccc(C#N)cc2)cc(C)c1Oc1nc(NC2CCN(Cc3ccc(C#N)cc3)CC2)ncc1CO — what was its EC50?
Resp: 21

###

# Test system: Human immunodeficiency virus 1
# ASSAY OVERVIEW: Antiviral activity against HIV-1 harboring Y188L mutant infected in human MT4 cells assessed as protection against virus-induced cytopathic effect incubated for 5 days by MTT assay
# Type: functional, organism-based
# MEASUREMENT PARAMETERS: Human immunodeficiency virus 1, MT4, 120 h
QUANTITY KIND: EC50

Req: Sample COCCNC(=O)c1ccc(CN2CCC(Nc3ncc(CO)c(Oc4c(C)cc(-c5ccc(C#N)cc5)cc4C)n3)CC2)cc1 — what was its EC50?
Resp: 49 nM

Req: Sample Cc1cc(-c2ccc(C#N)cc2)cc(C)c1Oc1nc(NC2CCN(Cc3ccc(C#N)cc3)CC2)ncc1CO — what was its EC50?
Resp: 59 nM

Req: Sample COC(=O)c1ccc(CN2CCC(Nc3ncc(CO)c(Oc4c(C)cc(-c5ccc(C#N)cc5)cc4C)n3)CC2)cc1 — what was its EC50?
Resp: 175 nM

Req: Sample COCCNS(=O)(=O)c1ccc(CN2CCC(Nc3ncc(CO)c(Oc4c(C)cc(-c5ccncc5)cc4C)n3)CC2)cc1 — what was its EC50?
Resp: 48 nM

Req: Sample Cc1cc(-c2ccncc2)cc(C)c1Oc1nc(NC2CCN(Cc3ccc(S(N)(=O)=O)cc3)CC2)ncc1CO — what was its EC50?
Resp: 177 nM

Req: Sample COC(=O)/C=C/c1ccc(CN2CCC(Nc3ncc(CO)c(Oc4c(C)cc(-c5ccc(C#N)cc5)cc4C)n3)CC2)cc1 — what was its EC50?
Resp: 213 nM

Req: Sample Cc1cc(-c2ccncc2)cc(C)c1Oc1nc(NC2CCN(Cc3ccc(S(=O)(=O)NCCO)cc3)CC2)ncc1CO — what was its EC50?
Resp: 466 nM

Req: Sample CNC(=O)c1ccc(CN2CCC(Nc3ncc(CO)c(Oc4c(C)cc(-c5ccncc5)cc4C)n3)CC2)cc1 — what was its EC50?
Resp: 122 nM

###

# ASSAY OVERVIEW: Selectivity index, ratio of CC50 for cytotoxicity against human MT4 cells assessed as reduction in cell viability to EC50 for antiviral activity against wild type HIV-1 IIIB infected in human MT4 cells assessed as protection against virus-induced cytopathic effect
# Type: toxicity, cell-based
# MEASUREMENT PARAMETERS: MT4 cells, read-out: Ratio CC50/EC50
QUANTITY KIND: selectivity ratio
# answer = number (no unit)

Req: Sample Cc1cc(-c2ccc(C#N)cc2)cc(C)c1Oc1nc(NC2CCN(Cc3ccc(C#N)cc3)CC2)ncc1CO — what was its selectivity ratio?
Resp: 684

Req: Sample Cc1cc(-c2ccc(C#N)cc2)cc(C)c1Oc1nc(NC2CCN(Cc3ccc(S(=O)(=O)NCCCO)cc3)CC2)ncc1CO — what was its selectivity ratio?
Resp: 247

Req: Sample Cc1ccc(CN2CCC(Nc3ncc(CO)c(Oc4c(C)cc(-c5ccc(C#N)cc5)cc4C)n3)CC2)cc1 — what was its selectivity ratio?
Resp: 285

Req: Sample N#Cc1ccc(Nc2ncc(CO)c(Oc3c(F)cc(-c4ccc(C#N)cc4)cc3F)n2)cc1 — what was its selectivity ratio?
Resp: 256000

Req: Sample Cc1cc(-c2ccc(C#N)cc2)cc(C)c1Oc1nc(NC2CCN(Cc3ccc(CO)cc3)CC2)ncc1CO — what was its selectivity ratio?
Resp: 1980

Req: Sample CNC(=O)c1ccc(CN2CCC(Nc3ncc(CO)c(Oc4c(C)cc(-c5ccc(C#N)cc5)cc4C)n3)CC2)cc1 — what was its selectivity ratio?
Resp: 1250

###

Assignment: determine reported solubility at 24 h for the given compounds.
# ASSAY OVERVIEW: Solubility of compound in phosphate buffer at pH 7 incubated for 24 hrs by HPLC analysis
# Assay type: physicochemical

Req: Sample Cc1cc(C#N)cc(C)c1Oc1nc(Nc2ccc(C#N)cc2)nc(N)c1Br — what was its solubility at 24 h?
Resp: < 1 µg/mL

Req: Sample Cc1cc(-c2ccc(C#N)cc2)cc(C)c1Oc1nc(NC2CCN(Cc3ccc(S(N)(=O)=O)cc3)CC2)ncc1CO — what was its solubility at 24 h?
Resp: < 1 µg/mL

Req: Sample Cc1cc(-c2ccc(C#N)cc2)cc(C)c1Oc1nc(NC2CCN(Cc3ccc(S(N)(=O)=O)cc3)CC2)ncc1CO.Cl — what was its solubility at 24 h?
Resp: < 1 µg/mL

###

Assignment: determine reported selectivity ratio for the given compounds.
# ASSAY OVERVIEW: Selectivity index, ratio of CC50 for cytotoxicity against human MT4 cells assessed as reduction in cell viability to EC50 for antiviral activity against wild type HIV-1 IIIB infected in human MT4 cells assessed as protection against virus-induced cytopathic effect
# Type: toxicity, cell-based
# MEASUREMENT PARAMETERS: MT4 cells, read-out: Ratio CC50/EC50
# answer = number (no unit)

Req: Sample Cc1cc(-c2ccncc2)cc(C)c1Oc1nc(NC2CCN(Cc3ccc(S(=O)(=O)N4CCC(O)CC4)cc3)CC2)ncc1CO — what was its selectivity ratio?
Resp: 750

Req: Sample COCCNS(=O)(=O)c1ccc(CN2CCC(Nc3ncc(CO)c(Oc4c(C)cc(-c5ccc(C#N)cc5)cc4C)n3)CC2)cc1 — what was its selectivity ratio?
Resp: 1030

Req: Sample Cc1cc(-c2ccc(C#N)cc2)cc(C)c1Oc1nc(NC2CCN(Cc3ccc(S(=O)(=O)NCCO)cc3)CC2)ncc1CO — what was its selectivity ratio?
Resp: 1630

Req: Sample COCCNC(=O)c1ccc(CN2CCC(Nc3ncc(CO)c(Oc4c(C)cc(-c5ccc(C#N)cc5)cc4C)n3)CC2)cc1 — what was its selectivity ratio?
Resp: 1860

###

# System: Human immunodeficiency virus 1
# ASSAY OVERVIEW: Antiviral activity against HIV-1 harboring E138K mutant infected in human MT4 cells assessed as protection against virus-induced cytopathic effect incubated for 5 days by MTT assay
# Format: functional, organism-based
# MEASUREMENT PARAMETERS: Human immunodeficiency virus 1, MT4, 120 h
Assignment: determine reported EC50 for the given compounds.
// units = nM; emit number, no label

Req: Sample N#Cc1ccc(Nc2ncc(CO)c(Oc3c(F)cc(-c4ccc(C#N)cc4)cc3F)n2)cc1 — what was its EC50?
Resp: 4

Req: Sample COCCNC(=O)c1ccc(CN2CCC(Nc3ncc(CO)c(Oc4c(C)cc(-c5ccc(C#N)cc5)cc4C)n3)CC2)cc1 — what was its EC50?
Resp: 19

Req: Sample CNS(=O)(=O)c1ccc(CN2CCC(Nc3ncc(CO)c(Oc4c(C)cc(-c5ccc(C#N)cc5)cc4C)n3)CC2)cc1 — what was its EC50?
Resp: 30

Req: Sample Cc1cc(-c2ccc(C#N)cc2)cc(C)c1Oc1nc(NC2CCN(Cc3cccc(C#N)c3)CC2)ncc1CO — what was its EC50?
Resp: 55

Req: Sample Cc1cc(-c2ccc(C#N)cc2)cc(C)c1Oc1nc(NC2CCN(Cc3ccc(C(=O)NCCCO)cc3)CC2)ncc1CO — what was its EC50?
Resp: 26

Req: Sample Cc1cc(-c2ccc(C#N)cc2)cc(C)c1Oc1nc(NC2CCN(Cc3ccc(S(=O)(=O)N4CCC(O)CC4)cc3)CC2)ncc1CO — what was its EC50?
Resp: 38

Req: Sample Cc1cc(-c2ccc(C#N)cc2)cc(C)c1Oc1nc(NC2CCN(Cc3ccc(S(C)(=O)=O)cc3)CC2)ncc1CO — what was its EC50?
Resp: 36

Req: Sample COCCNS(=O)(=O)c1ccc(CN2CCC(Nc3ncc(CO)c(Oc4c(C)cc(-c5ccncc5)cc4C)n3)CC2)cc1 — what was its EC50?
Resp: 48

Req: Sample O=C1Nc2ccc(Cl)cc2[C@@](C#CC2CC2)(C(F)(F)F)O1 [EFAVIRENZ] — what was its EC50?
Resp: 10

Req: Sample COCCNS(=O)(=O)c1ccc(CN2CCC(Nc3ncc(CO)c(Oc4c(C)cc(-c5ccc(C#N)cc5)cc4C)n3)CC2)cc1 — what was its EC50?
Resp: 40
